- measurement-parameters: [M+H]+; instrument: DT; stepped-field
test-readout: collision cross section (N2) (Å²)

# compound, uom, measured-number
data = [
    ("Cc1ncc(COP(=O)(O)O)c(C=O)c1O [Pyridoxal Phosphate]", "Å²", 151.94),
    ("CSCC[C@H](NC(=O)[C@H](CC(C)C)NC(=O)CNC(=O)[C@H](Cc1ccccc1)NC(=O)[C@H](Cc1ccccc1)NC(=O)[C@H](CCC(N)=O)NC(=O)[C@H](CCC(N)=O)NC(=O)[C@@H]1CCCN1C(=O)[C@H](CCCCN)NC(=O)[C@@H]1CCCN1C(=O)[C@@H](N)CCCN=C(N)N)C(N)=O [Substance P]", "Å²", 362.51),
    ("N[C@@H](CSSC[C@H](N)C(=O)O)C(=O)O [L-Cystine]", "Å²", 150.08),
    ("N[C@@H](Cc1cnc[nH]1)C(=O)O [L-Histidine]", "Å²", 132.74),
]
